target.or.system: LIM domain kinase 2 (Homo sapiens)
Sequence (P53671 whole entry, the tested form may be a part): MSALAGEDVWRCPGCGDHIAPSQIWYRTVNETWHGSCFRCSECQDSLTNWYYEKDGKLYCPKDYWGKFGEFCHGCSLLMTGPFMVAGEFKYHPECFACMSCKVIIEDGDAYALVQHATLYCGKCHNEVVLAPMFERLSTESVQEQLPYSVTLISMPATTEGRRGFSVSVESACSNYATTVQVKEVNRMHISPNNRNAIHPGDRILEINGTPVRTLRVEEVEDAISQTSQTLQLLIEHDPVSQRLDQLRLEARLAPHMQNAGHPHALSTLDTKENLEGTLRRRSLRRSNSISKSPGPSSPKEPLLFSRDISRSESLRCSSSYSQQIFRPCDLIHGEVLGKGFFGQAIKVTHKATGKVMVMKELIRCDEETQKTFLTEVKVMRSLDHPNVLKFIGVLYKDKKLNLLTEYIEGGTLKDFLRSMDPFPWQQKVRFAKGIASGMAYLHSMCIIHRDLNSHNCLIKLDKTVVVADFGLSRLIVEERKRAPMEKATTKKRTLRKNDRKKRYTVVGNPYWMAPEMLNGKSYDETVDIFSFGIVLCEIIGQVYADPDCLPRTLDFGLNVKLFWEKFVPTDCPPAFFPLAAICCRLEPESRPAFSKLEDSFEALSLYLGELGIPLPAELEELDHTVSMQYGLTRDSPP
protocol.description: Inhibition of LIMK2
endpoint.label: IC50 (µM)

1. CC(C)Nc1ncc(-c2cc(-c3ccccc3Cl)nc(-c3ccccn3)n2)s1; 0.362
2. CC(C)Nc1ncc(-c2cc(-c3ccccc3Cl)nc(NCCN(C)C)n2)s1; 0.00305

###

protocol.description: Aqueous solubility of the compound at pH 6.5
Assay type: physicochemical
test.context: buffer
Reported solubility values are given for each entry in this list.
endpoint.label: solubility (ng/mL)

1) CCNC(=O)NCc1ccccc1-c1cc(-c2cnc(NC(C)C)s2)nc(NCCN(C)C)n1; 5940
2) CC(C)Nc1ncc(-c2cc(-c3ccccc3Cl)nc(NCCN(C)C)n2)s1; 994

###

target.or.system: Mitogen-activated protein kinase 14 (Homo sapiens, UniProt Q16539)
Sequence (Q16539 whole entry): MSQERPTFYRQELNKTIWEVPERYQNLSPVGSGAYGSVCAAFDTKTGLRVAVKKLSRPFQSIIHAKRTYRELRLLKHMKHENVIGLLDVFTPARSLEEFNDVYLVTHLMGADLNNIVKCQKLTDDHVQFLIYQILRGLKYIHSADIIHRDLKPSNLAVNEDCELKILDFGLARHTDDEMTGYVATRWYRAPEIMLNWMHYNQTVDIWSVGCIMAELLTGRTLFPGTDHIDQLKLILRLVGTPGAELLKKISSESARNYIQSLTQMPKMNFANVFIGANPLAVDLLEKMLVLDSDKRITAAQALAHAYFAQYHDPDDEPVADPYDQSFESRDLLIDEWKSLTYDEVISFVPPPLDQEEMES
protocol.description: Inhibition of bacterially expressed activated p38alpha pre-incubated 10 mins measured after 45 mins by scintillation counting
Response field label: string, one of condition met (IC50 strictly below 20 nM) or condition not met.

1) CCCNc1ncc(-c2ccnc(-c3ccccc3F)n2)s1; condition not met
2) CC(C)Nc1ncc(-c2cc(-c3ccccc3CNC(=O)NC3CC3)nc(NCCN(C)C)n2)s1; condition met
3) CCCNc1ncc(-c2ccnc(-c3ccccn3)n2)s1; condition not met
4) CC(C)Nc1ncc(-c2cc(-c3ccccc3Cl)nc(NCC(O)CO)n2)s1 (stereo unspecified); condition met
5) CC(C)Nc1ncc(-c2cc(-c3ccccc3Cl)ncn2)s1; condition not met
6) CCCNc1ncc(-c2cc(-c3ccccc3F)nc(C3CC3)n2)s1; condition not met
7) Nc1ncc(-c2cc(-c3ccccc3Cl)nc(-c3ccccn3)n2)s1; condition not met
8) Clc1ccccc1-c1cc(-c2cnc(NC3CC3)s2)nc(-c2ccccn2)n1; condition met
9) CC(C)Nc1ncc(-c2cc(-c3ccccc3Cl)nc(N)n2)s1; condition met
10) CCNc1ncc(-c2cc(-c3ccccc3Cl)nc(-c3ccccn3)n2)s1; condition met
11) CNC(=O)NCc1ccccc1-c1cc(-c2cnc(NC(C)C)s2)nc(NCCN(C)C)n1; condition met

###

target.or.system: LIM domain kinase 1 (Homo sapiens)
Sequence (P53667 whole entry, the tested form may be a part): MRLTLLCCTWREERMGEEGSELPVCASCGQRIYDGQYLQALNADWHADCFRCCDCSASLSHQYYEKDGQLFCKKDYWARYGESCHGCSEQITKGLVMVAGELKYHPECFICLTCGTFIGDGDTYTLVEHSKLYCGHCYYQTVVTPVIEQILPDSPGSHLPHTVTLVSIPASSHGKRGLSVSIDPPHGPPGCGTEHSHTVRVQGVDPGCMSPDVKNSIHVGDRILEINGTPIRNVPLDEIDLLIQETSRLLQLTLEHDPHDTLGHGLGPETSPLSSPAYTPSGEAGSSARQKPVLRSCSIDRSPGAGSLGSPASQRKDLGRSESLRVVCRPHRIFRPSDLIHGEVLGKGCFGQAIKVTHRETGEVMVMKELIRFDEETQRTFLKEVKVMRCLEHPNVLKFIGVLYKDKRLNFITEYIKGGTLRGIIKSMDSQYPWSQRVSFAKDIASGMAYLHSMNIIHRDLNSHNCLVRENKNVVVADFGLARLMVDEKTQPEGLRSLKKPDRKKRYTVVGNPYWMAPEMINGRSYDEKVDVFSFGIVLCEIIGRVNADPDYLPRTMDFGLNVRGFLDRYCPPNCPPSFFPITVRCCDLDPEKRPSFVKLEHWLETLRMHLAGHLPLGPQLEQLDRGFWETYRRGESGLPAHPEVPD
pIC50: −log10 of the molar value.
endpoint.label: pIC50

1. CC(C)Nc1ncc(-c2cc(-c3ccccc3Cl)nc(NCCN(C)C)n2)s1; 8.40

###

target.or.system: Mitogen-activated protein kinase 14 (Homo sapiens, UniProt Q16539)
protocol.description: Inhibition of bacterially expressed activated p38alpha pre-incubated 10 mins measured after 45 mins by scintillation counting
pIC50: −log10 of the molar value.
endpoint.label: pIC50

1) CCCNc1ncc(-c2cc(-c3ccccc3F)nc(-c3ccccn3)n2)s1; 7.28
2) CCCNc1ncc(-c2cc(-c3ccccc3F)nc(C)n2)s1; 6.28
3) CCCNc1ncc(-c2cc(-c3ccc(F)cc3)nc(-c3ccccn3)n2)s1; 7.28
4) CC(C)Nc1ncc(-c2cc(-c3ccccc3Cl)nc(-c3ccccn3)n2)s1; 8.40
5) CC(C)Nc1ncc(-c2ccnc(-c3ccccc3Cl)n2)s1; 6.65
6) CCCNc1ncc(-c2cc(-c3ccccc3Cl)nc(-c3ccccn3)n2)s1; 7.66

###

protocol.description: Aqueous solubility of the compound at pH 6.5
Type: physicochemical
test.context: buffer
endpoint.label: solubility

1) CC[C@H](C)Nc1ncc(-c2cc(-c3ccccc3Cl)nc(-c3ccccn3)n2)s1; < 5 ng/mL
2) CC[C@@H](C)Nc1ncc(-c2cc(-c3ccccc3Cl)nc(-c3ccccn3)n2)s1; < 5 ng/mL
3) CC(C)Nc1ncc(-c2cc(-c3ccccc3Cl)nc(-c3ccccn3)n2)s1; < 5 ng/mL

Origin of the recorded values: ChEMBL document CHEMBL1255531
